Property: log10 IC50; scope: individual compounds
- EXPERIMENTAL_TARGET: KRas^G12V (Homo sapiens, UniProt P01116, G12V)
- Construct: Biotinylated KRas (corresponding to amino acids 1-169, produced at Accelegan Inc.); biotin (biotinylated); purchased Accelegan Inc
- Sequence (P01116 1-169 isoform P01116-2 G12V): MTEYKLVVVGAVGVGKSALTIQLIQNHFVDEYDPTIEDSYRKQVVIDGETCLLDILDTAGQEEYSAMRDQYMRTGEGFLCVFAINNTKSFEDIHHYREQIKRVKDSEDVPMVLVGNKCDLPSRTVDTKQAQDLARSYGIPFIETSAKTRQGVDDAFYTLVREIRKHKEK
- ASSAY_PROTOCOL: KRas binding assay (TR-FRET tracer displacement), KRas G12V
PARAMETER: log10 IC50 (log10 of the value in nM)

1. CCc1c(F)ccc2cc(O)cc(-c3ncc4c(NC[C@@H]5C[C@H](CO)NC5=O)nc(OC[C@@]56CCCN5C[C@H](F)C6)nc4c3F)c12 | 1.00
2. CCc1c(F)ccc2cc(O)cc(-c3ncc4c(N5CC6CCC(C5)C6C(=O)NC)nc(OC[C@@]56CCCN5C[C@H](F)C6)nc4c3F)c12 (stereo partly drawn) | 0.90
3. Cc1cc2[nH]nnc2c(-c2ncc3c(N4CCOC[C@@](C)(O)C4)nc(OCC45CCCN4CCC5)nc3c2F)c1C | 3.54
4. CCc1c(F)ccc2cc(O)cc(-c3ncc4c(N5C[C@H](F)C[C@@H](OC)C5)nc(OC[C@@]56CCCN5C[C@H](F)C6)nc4c3F)c12 | 0.78
5. CCc1c(F)ccc2cc(O)cc(-c3ncc4c(N5C[C@@H]6C[C@]6(c6nc(C)no6)C5)nc(OC[C@@]56CCCN5C[C@H](F)C6)nc4c3F)c12 | 1.72
6. CCc1c(F)ccc2cc(O)cc(-c3ncc4c(NCc5cc(C(=O)N(C)C)nn5C5COC5)nc(OC[C@@]56CCCN5C[C@H](F)C6)nc4c3F)c12 | 0.60

* * *

- EXPERIMENTAL_TARGET: KRas^G12S (Homo sapiens, UniProt P01116, G12S)
- Construct: Biotinylated KRas (corresponding to amino acids 1-169, produced at Accelegan Inc.); biotin (biotinylated); purchased Accelegan Inc
- Sequence (P01116 1-169 isoform P01116-2 G12S): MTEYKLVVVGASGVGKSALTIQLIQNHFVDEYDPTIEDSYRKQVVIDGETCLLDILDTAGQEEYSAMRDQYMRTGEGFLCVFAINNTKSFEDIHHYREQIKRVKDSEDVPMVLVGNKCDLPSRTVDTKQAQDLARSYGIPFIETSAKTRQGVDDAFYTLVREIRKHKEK
- ASSAY_PROTOCOL: KRas binding assay (TR-FRET tracer displacement), KRas G12S
- SETTINGS: TR-FRET tracer displacement, KRas G12S
Property: IC50; scope: individual compounds
PARAMETER: IC50 (nM)

1) CCc1cccc2cc3[nH]ncc3c(-c3ncc4c(N5CCCn6nc(C(=O)N(C)C)cc6C5)nc(OC[C@@]56CCCN5C[C@H](F)C6)nc4c3F)c12 | 6
2) O=C1NCC2(CCCN(c3nc(OCC45CCCN4CCC5)nc4c(F)c(-c5c6ccccc6cc6[nH]ncc56)ncc34)C2)N1 (stereo not drawn) | 13
3) CCc1c(F)ccc2cc(O)cc(-c3nc4c5c(nc(OC[C@@]67CCCN6C[C@H](F)C7)nc5c3F)NCCO4)c12 | 14
4) Cc1cc2[nH]nnc2c(-c2ncc3c(N4CCC[C@@](C)(O)C4)nc(OC[C@@]45CCCN4C[C@H](F)C5)nc3c2F)c1C | 121
5) Cc1cc2[nH]ncc2c(-c2ncc3c(N4CC5C(=O)NC(=O)C5C4)nc(OCC45CCCN4CCC5)nc3c2F)c1C (stereo not drawn) | 68
6) Oc1cc(Cl)c(C2CC2)c(-c2ncc3c(N4C[C@H]5C[C@@H](C4)[C@H](O)C5)nc(OCC45CCCN4CCC5)nc3c2F)c1 | 9

* * *

- EXPERIMENTAL_TARGET: KRas^G12R (Homo sapiens, UniProt P01116, G12R)
- Construct: Biotinylated KRas (corresponding to amino acids 1-169, produced at Accelegan Inc.); biotin (biotinylated); purchased Accelegan Inc
- Sequence (P01116 1-169 isoform P01116-2 G12R): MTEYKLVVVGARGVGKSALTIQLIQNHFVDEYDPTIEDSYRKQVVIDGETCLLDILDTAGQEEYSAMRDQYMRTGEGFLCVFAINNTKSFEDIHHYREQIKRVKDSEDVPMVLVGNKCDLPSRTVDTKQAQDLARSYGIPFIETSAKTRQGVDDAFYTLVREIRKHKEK
- ASSAY_PROTOCOL: KRas binding assay (TR-FRET tracer displacement), KRas G12R
Property: IC50; scope: individual compounds
PARAMETER: IC50

1) CCc1c(F)ccc2cc(O)cc(-c3ncc4c(N5CC6CCCC(C6)C5)nc(OC[C@@]56CCCN5C[C@H](F)C6)nc4c3F)c12 | 27 nM
2) CCc1c(F)ccc2cc(O)cc(-c3ncc4c(N5CCCn6nc(C(=O)N(C)C)c(C)c6C5)nc(OC[C@@]56CCCN5C[C@H](F)C6)nc4c3F)c12 | < 2 nM
3) CCc1c(F)ccc2cc(O)cc(-c3ncc4c(N5CC6CCC(COC(=O)N(C)C)(C6)C5)nc(OC[C@@]56CCCN5C[C@H](F)C6)nc4c3F)c12 (stereo partly drawn) | 26 nM
4) Oc1cc(-c2ncc3c(N4CCOCC5(CCO5)C4)nc(OC[C@@]45CCCN4C[C@H](F)C5)nc3c2F)c2c(Cl)c(F)ccc2c1 (stereo partly drawn) | < 2 nM
5) CCc1c(F)ccc2cc(O)cc(-c3ncc4c(N5CCCn6nc(C(=O)N(C)C)cc6C5)nc(N5CC(C)(N)C5)nc4c3F)c12 | 24 nM
6) CCc1c(F)ccc2cc(O)cc(-c3ncc4c(N5CCCn6nc(C(=O)N(C)C)cc6C5)nc(OC[C@]56CCCN5[C@H](COC(=O)N(C)C)CC6)nc4c3F)c12 | 2 nM
